- assay info: Inhibition of Phosphodiesterase 7
pIC50: −log10 of the molar value.
Kind request: treat 7 as inclusive, so pIC50 at 7 or higher is t, anything lower is f.

# molecule, label
records = [
    ("CCOC(=O)c1sc(Nc2nc(NCc3ccc(S(N)(=O)=O)cc3)c3c(ncn3CC)n2)nc1C", "t"),
    ("COc1cc(-c2ccc(=O)[nH]n2)ccc1OC(F)F", "f"),
    ("CCn1cnc2nc(Nc3nc(C)c(C(=O)Nc4ccccc4)s3)nc(NCc3ccc(OC)c(OC)c3)c21", "f"),
    ("CCOC(=O)c1sc(Nc2nc(NCc3ccc(S(N)(=O)=O)cc3)c3ncn(CC)c3n2)nc1C", "t"),
    ("CN(C(=O)CCCOc1ccc2[nH]c(=O)ccc2c1)C1CCCCC1 [CILOSTAMIDE]", "f"),
    ("COc1nc2c([nH]1)c(=O)n(C)c(=O)n2CC(C)C", "f"),
]

---

pIC50: −log10 of the molar value.
Measured pIC50 on cGMP-specific 3',5'-cyclic phosphodiesterase (Homo sapiens) follows.
measured attribute: pIC50

# molecule, measured attribute, value qualifier, reported result
rows = [
    ("CN(C(=O)CCCOc1ccc2[nH]c(=O)ccc2c1)C1CCCCC1 [CILOSTAMIDE]", "pIC50", "=", 5.15),
    ("CCOC(=O)c1sc(Nc2nc(NCc3ccc(OC)c(OC)c3)c3c(ncn3CC)n2)nc1C", "pIC50", "=", 6.57),
    ("COc1cc(-c2ccc(=O)[nH]n2)ccc1OC(F)F [ZARDAVERINE]", "pIC50", "<", 5.00),
]

---

- assay info: Inhibitory concentration ratio of PDE5 to that of PDE7
Heads up, the class ranges for Ratio are interval 1: < 0.9; interval 2: ≥ 0.9 and < 5; interval 3: ≥ 5

# smiles notation, label
records = [
    ("CCOC(=O)c1sc(Nc2nc(NCc3ccc(OCc4ccccc4)c(OC)c3)c3c(ncn3CC)n2)nc1C", "interval 2"),
    ("CCOC(=O)c1sc(Nc2nc(NS(=O)(=O)c3ccc(S(C)(=O)=O)cc3)c3ncn(CC)c3n2)nc1C", "interval 1"),
    ("CCOC(=O)c1sc(Nc2nc(N3CCc4cc(OC)c(OC)cc4C3)c3c(ncn3CC)n2)nc1C", "interval 2"),
    ("CCOC(=O)c1sc(Nc2nc(NCc3ccc(S(N)(=O)=O)cc3)c3ncn(CC)c3n2)nc1C", "interval 3"),
    ("CCOC(=O)c1sc(Nc2nc(NCc3ccc4c(c3)OCO4)c3c(ncn3CC)n2)nc1C", "interval 1"),
    ("CCOC(=O)c1sc(Nc2nc(OCc3ccc(S(C)(=O)=O)cc3)c3ncn(CC)c3n2)nc1C", "interval 2"),
    ("CCn1cnc2nc(Nc3nc(C)c(C(=O)Nc4ccccc4)s3)nc(NCc3ccc(OC)c(OC)c3)c21", "interval 2"),
    ("CCOC(=O)c1sc(Nc2nc(NCc3cc(OC)c(OC)c(OC)c3)c3c(ncn3CC)n2)nc1C", "interval 3"),
]

---

Reported IC50 is given for each of the following compounds.
- assay system: Phosphodiesterase 1 (Bos taurus, UniProt Q01061+P14100)
- assay info: Inhibitory concentration against phosphodiesterase 1 from bovine, calmodulin
- Type: protein assay

# compound, value qualifier, IC50 (µM)
data = [
    ("COc1cc(-c2ccc(=O)[nH]n2)ccc1OC(F)F", ">", 10),
    ("CN(C(=O)CCCOc1ccc2[nH]c(=O)ccc2c1)C1CCCCC1 [CILOSTAMIDE]", ">", 10),
    ("CCOC(=O)c1sc(Nc2nc(NCc3ccc(OC)c(OC)c3)c3c(ncn3CC)n2)nc1C", "=", 0.22),
    ("COc1nc2c([nH]1)c(=O)n(C)c(=O)n2CC(C)C", "=", 1.8),
    ("COc1ccc(C2CNC(=O)C2)cc1OC1CCCC1 (stereo not given)", ">", 10),
]

---

- assay info: Inhibition of Phosphodiesterase 7
Threshold 400 nM: IC50 strictly smaller gives MET, otherwise NOT MET.

# compound, label
records = [
    ("CCOC(=O)c1sc(Nc2nc(NCc3ccc(OCc4ccccc4)c(OC)c3)c3c(ncn3CC)n2)nc1C", "NOT MET"),
    ("CCOC(=O)c1sc(Nc2nc(N3CCc4cc(OC)c(OC)cc4C3)c3c(ncn3CC)n2)nc1C", "MET"),
    ("CCOC(=O)c1sc(Nc2nc(OCc3ccc(S(C)(=O)=O)cc3)c3ncn(CC)c3n2)nc1C", "MET"),
    ("COc1ccc(C2CNC(=O)C2)cc1OC1CCCC1 (configuration not stated)", "NOT MET"),
    ("CCOC(=O)c1sc(Nc2nc(NCc3ccc(S(C)(=O)=O)cc3)c3c(ncn3CC)n2)nc1C", "MET"),
    ("CCCc1nn(C)c2c(=O)[nH]c(-c3cc(S(=O)(=O)N4CCN(C)CC4)ccc3OCC)nc12", "NOT MET"),
    ("CCOC(=O)c1sc(Nc2nc(NS(=O)(=O)c3ccc(S(C)(=O)=O)cc3)c3ncn(CC)c3n2)nc1C", "NOT MET"),
]

---

Reported Ratio is given for each of the following compounds.
- assay info: Inhibitory concentration ratio of PDE4 to that of PDE7
measured attribute: Ratio

# smiles notation, reported result
data = [
    ("CCOC(=O)c1sc(Nc2nc(N3CCc4cc(OC)c(OC)cc4C3)c3c(ncn3CC)n2)nc1C", 1.3),
    ("CCOC(=O)c1sc(Nc2nc(NCc3ccc(S(N)(=O)=O)cc3)c3ncn(CC)c3n2)nc1C", 16),
    ("CCOC(=O)c1sc(Nc2nc(NCc3ccc(OCc4ccccc4)c(OC)c3)c3c(ncn3CC)n2)nc1C", 3.8),
    ("CCOC(=O)c1sc(Nc2nc(NCc3ccc(S(C)(=O)=O)cc3)c3c(ncn3CC)n2)nc1C", 22),
    ("CCn1cnc2nc(Nc3nc(C)c(C(=O)Nc4ccccc4)s3)nc(NCc3ccc(OC)c(OC)c3)c21", 7),
    ("CCOC(=O)c1sc(Nc2nc(NCc3cc(OC)c(OC)c(OC)c3)c3c(ncn3CC)n2)nc1C", 24),
    ("CCOC(=O)c1sc(Nc2nc(NS(=O)(=O)c3ccc(S(C)(=O)=O)cc3)c3ncn(CC)c3n2)nc1C", 0.046),
]

---

Reported IC50 is given for each of the following compounds.
- assay info: Inhibition of Phosphodiesterase 7
measured attribute: IC50 (µM)

# smiles notation, reported result
rows = [
    ("CCOC(=O)c1sc(Nc2nc(NCc3ccc(OC)c(OC)c3)c3c(ncn3CC)n2)nc1C", 0.15),
    ("CCOC(=O)c1sc(Nc2nc(NCc3ccc4c(c3)OCO4)c3c(ncn3CC)n2)nc1C", 0.11),
    ("CCOC(=O)c1sc(Nc2nc(NCc3cc(OC)c(OC)c(OC)c3)c3c(ncn3CC)n2)nc1C", 0.1),
]
